System: A. baumannii CQ4322
Assay: Broth microdilution MIC/MBC, glycosides with or without polymyxins
Type: cell-based, Acinetobacter baumannii
Conditions: PMB 0.5 μg/mL; strain G
Below is a list of entries, each paired with its recorded MIC of compound in combination with PMB value.
value.type: MIC of compound in combination with PMB (µg/mL)

mol: CCCCCCCCCCCCO[C@H]1C[C@H](O)[C@@H](O)[C@H](C)O1
recorded.number: 0.8

mol: CCCCCCCCCCCC[C@H]1O[C@H](C)C[C@H](O)[C@H]1O
recorded.number: 3.1

mol: CCCCCCCCCCCCO[C@H]1O[C@H](C)C[C@H](O)[C@H]1O
recorded.number: 3.1

mol: CCCCCCCCCCCCO[C@@H]1O[C@H](C)C[C@H](O)[C@H]1O
recorded.number: 0.8

----------
Test system: K. pneumoniae CQ4921
Test: Broth microdilution MIC/MBC, glycosides with or without polymyxins
Type: cell-based, Klebsiella pneumoniae
Details: colistin 0.125 μg/mL; strain C
Below is a list of entries, each paired with its recorded MIC of compound in combination with colistin value.
value.type: MIC of compound in combination with colistin (µg/mL)

molecule: CCCCCCCCCCCC[C@H]1O[C@H](C)C[C@H](O)[C@H]1O [Compound 5]
censoring.operator: =
recorded.number: 3.1
//
molecule: CCCCCCCCCCCCO[C@H]1C[C@H](O)[C@@H](O)[C@H](C)O1 [Compound 3]
censoring.operator: >
recorded.number: 100
//
molecule: CCCCCCCCCCCCO[C@H]1O[C@H](C)C[C@H](O)[C@H]1O [Compound 1]
censoring.operator: >
recorded.number: 100
//
molecule: CCCCCCCCCCCCO[C@@H]1O[C@H](C)C[C@H](O)[C@H]1O [Compound 2]
censoring.operator: =
recorded.number: 3.1

----------
System: E. cloacae CQ1941
Test: Broth microdilution MIC/MBC, glycosides with or without polymyxins
Type: cell-based
Settings: PMB 0.5 μg/mL; strain D

mol: CCCCCCCCCCCCO[C@H]1C[C@H](O)[C@@H](O)[C@H](C)O1
target.entity: E. cloacae CQ1941
censoring.operator: ≤
MIC of compound in combination with PMB, µg/mL: 0.1
--
mol: CCCCCCCCCCCCO[C@H]1O[C@H](C)C[C@H](O)[C@H]1O
target.entity: E. cloacae CQ1941
censoring.operator: =
MIC of compound in combination with PMB, µg/mL: 1.6
--
mol: CCCCCCCCCCCCO[C@@H]1O[C@H](C)C[C@H](O)[C@H]1O
target.entity: E. cloacae CQ1941
censoring.operator: ≤
MIC of compound in combination with PMB, µg/mL: 0.1
--
mol: CCCCCCCCCCCCO[C@@H]1C[C@@H](O)[C@H](O)[C@@H](CO)O1
target.entity: E. cloacae CQ1941
censoring.operator: ≤
MIC of compound in combination with PMB, µg/mL: 0.1
--
mol: CCCCCCCCCCCC[C@H]1O[C@H](C)C[C@H](O)[C@H]1O
target.entity: E. cloacae CQ1941
censoring.operator: =
MIC of compound in combination with PMB, µg/mL: 1.6

----------
Below is a list of entries, each paired with its recorded MIC of colistin in combination with the compound value.
Test system: E. coli ATCC 25922
Experiment: Broth microdilution MIC/MBC, glycosides with or without polymyxins
Format: cell-based, Escherichia coli
Conditions: Cpd conc. 0.4 μg/mL; strain A
value.type: MIC of colistin in combination with the compound (µg/mL)

mol: CCCCCCCCCCCCO[C@@H]1O[C@H](C)C[C@H](O)[C@H]1O
display.unit: µg/mL
censoring.operator: >
recorded.number: 0.5

mol: CCCCCCCCCCCC[C@H]1O[C@H](C)C[C@H](O)[C@H]1O
display.unit: µg/mL
censoring.operator: >
recorded.number: 0.5

mol: CCCCCCCCCCCCO[C@H]1O[C@H](C)C[C@H](O)[C@H]1O
display.unit: µg/mL
censoring.operator: >
recorded.number: 0.5

mol: CCCCCCCCCCCCO[C@@H]1C[C@@H](O)[C@H](O)[C@@H](CO)O1
display.unit: µg/mL
censoring.operator: =
recorded.number: 0.5

mol: CCCCCCCCCCCCO[C@H]1C[C@H](O)[C@@H](O)[C@H](C)O1
display.unit: µg/mL
censoring.operator: =
recorded.number: 0.5
